- System: 349418-098-R-PDC complex spheroid viability
- assay.method.text: Anticancer human tumor 349418-098-R-PDC patient-derived lung adenocarcinoma cell line growth inhibition [RAS]
- test.parameters: second compound 0.003 µM; first compound 10 µM; active compounds read low
viability, T/C for assorted compounds

compound	viability, T/C
C[C@@H](NC(=O)c1ncnc(N)c1Cl)c1ncc(C(=O)Nc2cc(C(F)(F)F)c(Cl)cn2)s1 + CCn1c(-c2cccnc2C(C)OC)c2c3cc(ccc31)N1CCOC(CC(NC(=O)C(C(C)C)N(C)C(=O)C3(F)CCN(C(=O)C#CC(C)(C)N(C)C)CC3)C(=O)N3CCCC(N3)C(=O)OCC(C)(C)C2)C1	19.4%
CC(=O)OC12COC1CC(O)C1(C)C(=O)C(O)C3=C(C)C(OC(=O)C(O)C(NC(=O)OC(C)(C)C)c4ccccc4)CC(O)(C(OC(=O)c4ccccc4)C21)C3(C)C (configuration not stated) + CCn1c(-c2cccnc2C(C)OC)c2c3cc(ccc31)N1CCOC(CC(NC(=O)C(C(C)C)N(C)C(=O)C3(F)CCN(C(=O)C#CC(C)(C)N(C)C)CC3)C(=O)N3CCCC(N3)C(=O)OCC(C)(C)C2)C1	16.9%

* * *

- System: 349418-098-R-PDC complex spheroid viability
- assay.method.text: Anticancer human tumor 349418-098-R-PDC cell line growth inhibition [RAS];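 also: spheroids exposed to compound for seven days before viability readout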
- test.parameters: second compound 0.3 µM; first compound 3.16 µM; active compounds read low
# viability, T/C values compiled below

compound	viability, T/C / %
CC1(O)CCCC1n1c(=O)c(C(F)F)cc2cnc(NC3CCN(S(C)(=O)=O)CC3)nc21 (stereo not drawn) + CCn1c(-c2cc(N3CCN(C)CC3)cnc2C(C)OC)c2c3cc(ccc31)-c1csc(n1)CC(NC(=O)C1CC1C)C(=O)N1CCCC(N1)C(=O)OCC(C)(C)C2	20.5
Cc1nc(N2CCC3(CC2)COC(C)C3N)c(CO)nc1Sc1ccnc(N)c1Cl (stereo not drawn) + CCn1c(-c2cc(N3CCN(C)CC3)cnc2C(C)OC)c2c3cc(ccc31)-c1csc(n1)CC(NC(=O)C1CC1C)C(=O)N1CCCC(N1)C(=O)OCC(C)(C)C2	115
CC(=O)OC12COC1CC(O)C1(C)C(=O)C(O)C3=C(C)C(OC(=O)C(O)C(NC(=O)OC(C)(C)C)c4ccccc4)CC(O)(C(OC(=O)c4ccccc4)C21)C3(C)C (stereo not drawn) + CCn1c(-c2cccnc2C(C)OC)c2c3cc(ccc31)N1CCOC(CC(NC(=O)C(C(C)C)N(C)C(=O)C3(F)CCN(C(=O)C#CC(C)(C)N(C)C)CC3)C(=O)N3CCCC(N3)C(=O)OCC(C)(C)C2)C1	19.1
NC1c2ccccc2OC12CCN(c1cnc3c(N4CCCc5ncccc54)n[nH]c3n1)CC2 (stereo not drawn) + CCn1c(-c2cccnc2C(C)OC)c2c3cc(ccc31)N1CCOC(CC(NC(=O)C(C(C)C)N(C)C(=O)C3(F)CCN(C(=O)C#CC(C)(C)N(C)C)CC3)C(=O)N3CCCC(N3)C(=O)OCC(C)(C)C2)C1	85.2
C[C@@H](NC(=O)c1ncnc(N)c1Cl)c1ncc(C(=O)Nc2cc(C(F)(F)F)c(Cl)cn2)s1 + CCn1c(-c2cc(N3CCN(C)CC3)cnc2C(C)OC)c2c3cc(ccc31)-c1csc(n1)CC(NC(=O)C1CC1C)C(=O)N1CCCC(N1)C(=O)OCC(C)(C)C2	23.2
CC(C)NCC(C(=O)N1CCN(c2ncnc3c2C(C)CC3O)CC1)c1ccc(Cl)cc1 (stereo not drawn) + CCn1c(-c2cc(N3CCN(C)CC3)cnc2C(C)OC)c2c3cc(ccc31)-c1csc(n1)CC(NC(=O)C1CC1C)C(=O)N1CCCC(N1)C(=O)OCC(C)(C)C2	36
CC1(O)CCCC1n1c(=O)c(C(F)F)cc2cnc(NC3CCN(S(C)(=O)=O)CC3)nc21 (stereo not drawn) + CCn1c(-c2cccnc2C(C)OC)c2c3cc(ccc31)N1CCOC(CC(NC(=O)C(C(C)C)N(C)C(=O)C3(F)CCN(C(=O)C#CC(C)(C)N(C)C)CC3)C(=O)N3CCCC(N3)C(=O)OCC(C)(C)C2)C1	18.4
CCC(CC)c1cc(NC2CCC(N)C2)n2nccc2n1 (stereo not drawn) + CCn1c(-c2cccnc2C(C)OC)c2c3cc(ccc31)N1CCOC(CC(NC(=O)C(C(C)C)N(C)C(=O)C3(F)CCN(C(=O)C#CC(C)(C)N(C)C)CC3)C(=O)N3CCCC(N3)C(=O)OCC(C)(C)C2)C1	2.89
